Data origin, for the record: the RNAGym collection of RNA variant scans (doi:10.1093/molbev/msab373)

B1: Azoarcus group I ribozyme (parent)
chain: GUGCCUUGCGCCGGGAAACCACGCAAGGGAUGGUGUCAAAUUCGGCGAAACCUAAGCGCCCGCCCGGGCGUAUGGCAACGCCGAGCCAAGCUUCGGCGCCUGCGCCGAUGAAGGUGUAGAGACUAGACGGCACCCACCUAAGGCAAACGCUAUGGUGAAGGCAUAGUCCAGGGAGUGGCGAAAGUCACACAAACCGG

- Variants of: B1
- Test name: reverse-splicing fitness (ratio to wild type); higher = more active; in vitro selection; Mg2+ level not given
Provide the recorded reverse-splicing fitness for the entries that follow.
Give your answer as a number; write no unit.

So what's the measured reverse-splicing fitness for this one? C82A A111U A120G A145G C150G U176G 0.00604

Then C82G A111C A145U U176C ? 0.136

Then C82A A111G A120U A145C C150U C169A U176G ? 0.00215

Then C82G A111C A120U C150G C169G U176C ? 0.00379

Then C82U A120U C150A U176A ? 0.00756

Then C82G A120C C169U U176G ? 0.00468

Then C82U A111U A120U A145C C150A C169U ? 0.00254

Then C82G A111G A120G C169U U176G ? 0.00595

Then C82U A111G A145U C150U C169A ? 0.00819

Then C82G A111U A145C C169G U176A ? 0.0258

Then C82A A111C A145C C150A U176A ? 0.0105

Then C82A A111C A120C A145G C150A C169G U176G ? 0.00821

Then C82A A120C A145C C150A U176A ? 0.0107

Then C82G A120C C169A ? 0.00902

Then A111G A145G C150G C169G U176A ? 0.00939

Then C82U A111U A120G C150U C169U U176A ? 0.0214

Then C82A A120U A145C C169A U176G ? 0.00126

Then C82A A111U A145C C150G C169G ? 0.00746

Then C82A A111G A145U U176A ? 0.179

Then C82U A111C A145G C150G U176G ? 0.00671

Then A111C A120G A145G C150A C169G U176G ? 0.00523
